- tested_on: rat ASIC3 channel (Rattus norvegicus, UniProt O35240)
- Construct: expressed in transfected cells; host or cells: Xenopus laevis oocytes (cRNA injection)
- Sequence (O35240 whole entry): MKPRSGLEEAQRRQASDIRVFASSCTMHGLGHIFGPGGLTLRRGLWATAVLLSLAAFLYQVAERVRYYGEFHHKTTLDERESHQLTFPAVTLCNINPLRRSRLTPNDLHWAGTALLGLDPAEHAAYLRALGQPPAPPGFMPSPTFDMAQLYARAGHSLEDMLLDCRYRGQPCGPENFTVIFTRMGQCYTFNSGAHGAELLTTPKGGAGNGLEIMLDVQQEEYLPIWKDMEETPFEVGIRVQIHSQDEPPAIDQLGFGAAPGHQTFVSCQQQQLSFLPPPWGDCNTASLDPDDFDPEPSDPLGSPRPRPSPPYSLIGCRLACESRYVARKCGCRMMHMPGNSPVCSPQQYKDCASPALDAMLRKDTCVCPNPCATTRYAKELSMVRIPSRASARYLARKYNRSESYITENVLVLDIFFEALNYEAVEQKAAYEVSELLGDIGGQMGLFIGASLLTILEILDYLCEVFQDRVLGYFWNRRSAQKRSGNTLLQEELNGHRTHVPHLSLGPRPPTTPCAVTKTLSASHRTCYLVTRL
- test: Two-electrode voltage clamp, homomeric ASIC3 transient currents in Xenopus laevis oocytes
- Format: cell-based
- test_conditions: X. laevis oocytes; pH drop 7.8 to 4.0 (legend of Figure 4: from 7.4); mean ± SD, 5 cells; potentiation; read-out: EC50, potentiation of transient rASIC3 current
Bridges are numbered along the chain shown (N, C = ends). Where no end group is shown, it is not given here.

>  <chain_sequence>
GTPCDCYGYTGVYWFMLSRCPSGYGYNLSCHYFMGICCVKR (disulfide 4-37, 6-30, 20-38) [Hcr 1b-4]

>  <EC50>
1530 nM

$$$$

----------
A collection of sequences and their measured pIC50
- tested_on: rat ASIC1a channel (Rattus norvegicus)
- Construct: expressed in transfected cells; host or cells: Xenopus laevis oocytes (cRNA injection)
- Sequence (P55926 1-526): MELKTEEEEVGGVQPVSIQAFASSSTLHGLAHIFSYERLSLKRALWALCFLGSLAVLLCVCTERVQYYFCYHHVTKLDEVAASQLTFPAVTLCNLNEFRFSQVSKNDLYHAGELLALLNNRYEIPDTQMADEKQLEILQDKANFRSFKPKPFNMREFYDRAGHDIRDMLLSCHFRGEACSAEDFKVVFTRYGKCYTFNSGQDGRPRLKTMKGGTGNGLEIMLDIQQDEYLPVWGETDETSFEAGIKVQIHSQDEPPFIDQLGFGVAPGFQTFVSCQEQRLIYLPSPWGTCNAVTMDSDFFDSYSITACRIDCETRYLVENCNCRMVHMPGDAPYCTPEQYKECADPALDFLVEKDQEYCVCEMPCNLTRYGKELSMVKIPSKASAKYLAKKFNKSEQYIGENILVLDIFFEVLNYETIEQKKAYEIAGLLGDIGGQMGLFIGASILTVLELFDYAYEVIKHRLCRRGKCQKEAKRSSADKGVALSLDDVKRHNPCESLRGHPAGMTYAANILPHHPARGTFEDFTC
- test: Two-electrode voltage clamp, homomeric ASIC1a currents in Xenopus laevis oocytes
- Format: cell-based
- test_conditions: X. laevis oocytes; pH drop 7.8 to 5.5 (legend of Figure 4: from 7.4); peptide applied up to 15 s before; mean ± SD, 5 cells; logistic fit; read-out: IC50, inhibition of rASIC1a current
pIC50: −log10 of the molar value. Bridges are numbered along the chain shown (N, C = ends). Where no end group is shown, it is not given here.

>  <chain_sequence>
GTPCKCHGYIGVYWFMLAGCPDGYGYNLSCPYFLGICCVKK (disulfide 4-37, 6-30, 20-38) [Hcr 1b-3]

>  <pIC50>
5.31

$$$$
>  <chain_sequence>
GTPCDCYGYTGVYWFMLSRCPSGYGYNLSCHYFMGICCVKR (disulfide 4-37, 6-30, 20-38) [Hcr 1b-4]

>  <pIC50>
5.90

$$$$

----------
- tested_on: rat ASIC3 channel (Rattus norvegicus, UniProt O35240)
- Construct: expressed in transfected cells; host or cells: Xenopus laevis oocytes (cRNA injection)
- test: Two-electrode voltage clamp, homomeric ASIC3 transient currents in Xenopus laevis oocytes
- Format: cell-based
- test_conditions: X. laevis oocytes; pH drop 7.8 to 4.0 (legend of Figure 4: from 7.4); mean ± SD, 5 cells; logistic fit; read-out: IC50, inhibition of transient rASIC3 current
pIC50: −log10 of the molar value. Bridges are numbered along the chain shown (N, C = ends). Where no end group is shown, it is not given here.

>  <chain_sequence>
GTPCKCHGYIGVYWFMLAGCPDGYGYNLSCPYFLGICCVKK (disulfide 4-37, 6-30, 20-38) [Hcr 1b-3]

>  <pIC50>
4.77

$$$$
